System: SK-OV-3
assay: NCI tumour cell line growth inhibition, 48 h
Activity calls are given as the source filed them. Cut-off read from the data, not from the text of the source: active = GI50 up to about 1.1 µM and inactive = higher.
measuredParameter: GI50

compound	measuredParameter	result
CCOC(=O)Cc1csc(NC(NC(=O)OCC)(C(=O)OCC)C(F)(F)F)n1 (centres undefined)	GI50	> 100 µM (inactive)
COc1ccc(/C(Cl)=C(\C=O)c2ccc(Cl)c(Cl)c2)cc1	GI50	30.6 µM (inactive)
O=C(O/C=C\OC1CCCC1(c1ccccc1)c1ccccc1)c1ccccc1 (centres undefined)	GI50	16.5 µM (inactive)
Cc1nc(Nc2ccc(Cl)cc2Cl)sc1C(=O)Nc1ccccc1	GI50	> 100 µM (inactive)

Record COc1ccccc1CC(C)N (centres undefined) . Reported GI50: > 100 µM (inactive)

Record `COc1cc2c(cc1OC)C/C(=N\O)c1cc(OC)c(OC)cc1/C=C\2` . Reported GI50: 13.1 µM (inactive)

###

System: MOLT-4
assay: NCI tumour cell line growth inhibition, 48 h
Active and inactive are the calls of the source. Cut-off read from the data, not from the text of the source: active = GI50 up to about 1.1 µM and inactive = higher.
// allowed return values: active, inactive

Field: outcome | Entry: CCCCCCCCCC(=O)NC(Cc1ccc(O)cc1)C(=O)NCCCNCCCCNCCCNC(=O)[C@@H](N)CCCN=C(N)N (stereo partly specified)
inactive

Field: outcome | Entry: COc1ccc(CC2NCCc3c2[nH]c2ccccc32)cc1 (stereo unspecified)
inactive

Field: outcome | Entry: `O=C1CCCSC(=O)N1Cc1ccccc1`
inactive

Field: outcome | Entry: `C/C(CCn1[nH]c(=O)ccc1=O)=N\O`
inactive

Field: outcome | Entry: CC1=NNC(=O)C1C1CC(c2c[nH]c3ccccc23)=NNC1=S (stereo unspecified)
inactive

Field: outcome | Entry: `CC(=O)NC1=C(C)C(=O)c2c(nc3n2CC[C@H]3OC(C)=O)C1=O`
active

Field: outcome | Entry: `O=C(O)CCN1C(=S)CSC1=S`
inactive

###

System: 786-0
assay: NCI tumour cell line growth inhibition, 48 h
Activity calls are given as the source filed them. No stated cut-off is given here; in the data, active = GI50 up to about 1.1 µM and inactive = higher.
// allowed return values: active, inactive

molecule	assignedClass
N#Cc1ccsc1Nc1ccccc1[N+](=O)[O-]	inactive
COC1(OC)C[C@H](C)[C@@]23O[C@]24C2=CC(=O)C=CC2=N[C@H]3C#C/C=C\C#C[C@]14O	active
CN(CC(N)=O)C(=O)N(CCCl)N=O	inactive
COC1CC(OC2CCC3(C)C(=CCC4C3C(OC(C)=O)C(OC(=O)CC(C)C)C3(C)C(C(C)=O)CCC43O)C2)OC(C)C1OC1CC(OC)C(OC2CC(OC)C(OC3OC(C)C(OC4OC(CO)C(O)C(O)C4O)C(OC)C3O)C(C)O2)C(C)O1 (stereo unspecified)	inactive
O=c1[nH]nc(-c2ccccc2)n1/N=C/c1cccs1	inactive

Field: outcome | Entry: `COc1ccc(-c2c(-c3ccccc3)c(C)nc3[nH]c(=S)[nH]c(=S)c23)cc1OC`
inactive

Field: outcome | Entry: `CCN(CC)CCC(=O)Nc1ccc2c(c1)C(=O)c1ccc(NC(=O)CCN(CC)CC)cc1C2=O`
inactive

Field: outcome | Entry: `N=C1/C(=C/c2ccc(F)cc2)C(=O)N=C2SC=NN12`
inactive

Field: outcome | Entry: `O=C(/C(=C\c1ccc(Cl)cc1)c1ccccc1)c1ccccc1`
inactive

Field: outcome | Entry: `COCN1COCN(C)C1=O`
inactive

Field: outcome | Entry: CCN(CC)CC1CCCCCCCCCCC1=O (stereo unspecified)
inactive

Field: outcome | Entry: `O=C(C/C=C/c1ccccc1)c1ccccc1`
inactive

Field: outcome | Entry: COc1cc2cc(C(=O)N3CC(CCl)c4c3cc(NCCN)c3ccccc43)[nH]c2c(OC)c1OC (stereo unspecified)
active

Field: outcome | Entry: `C=C1c2nc3ccccc3n2C=C(c2ccc(OC)cc2)N1c1ccc(OCCN2CCOCC2)cc1`
inactive

Field: outcome | Entry: `COC(=O)NNc1c([N+](=O)[O-])cnn(-c2ccccc2)c1=O`
inactive

Field: outcome | Entry: `CN(NC(=O)/C(=C/c1ccc(Cl)cc1)NC(=O)c1ccccc1)c1cn[nH]c(=O)c1Cl`
inactive

###

System: HT-29
assay: NCI tumour cell line growth inhibition, 48 h
Activity calls are given as the source filed them. Rule as the data show it: active = GI50 up to about 1.1 µM and inactive = higher.
measuredParameter: GI50

molecule	GI50
CCN(CC)CC1CCCCCCCCCCC1=O (stereo unspecified)	> 100 µM (inactive)
CN(C)CCCNC(=O)c1cc(NC(=O)c2cc(NS(=O)(=O)c3ccc4c(c3)C(=O)c3ccccc3C4=O)cn2C)cn1C	65.3 µM (inactive)
O=S(=O)(O)Nc1ccc(-c2nc3ccccc3s2)cc1Cl	> 100 µM (inactive)
CC(NNC(=O)c1ccncc1)c1ccccc1 (stereo unspecified)	> 100 µM (inactive)
CCOc1cc(C2CC(c3ccc(NS(=O)(=O)c4cc([N+](=O)[O-])ccc4C)cc3)=NN2)ccc1O (stereo unspecified)	26.8 µM (inactive)
Cc1nc(Nc2ccc(F)cc2)c2sc(=S)n(-c3ccc(F)cc3)c2n1	6.17 µM (inactive)

Record `O=C(Cc1csc(-c2nc(CC(=O)NNc3ccccc3)cs2)n1)NNc1ccccc1` . Reported GI50: 71.1 µM (inactive)

Record `O=C(O/N=C1/CCCC/C1=C\c1ccccc1)c1ccc(Cl)cc1` . Reported GI50: > 100 µM (inactive)

Record `C[C@]12CC[C@H]3[C@@H](CCC4=C(Br)C(=O)C=C[C@@]43O)[C@@H]1CCC2=O` . Reported GI50: 36 µM (inactive)

Record `CC(C)(C)C(=O)c1c(O)c2ccccc2c2ccccc2c1=O` . Reported GI50: 49.7 µM (inactive)

Record `NC1=NS(=O)(=O)Nc2nc(-c3ccc([N+](=O)[O-])cc3)[nH]c21` . Reported GI50: > 100 µM (inactive)

###

System: HCC 2998
assay: NCI tumour cell line growth inhibition, 48 h
Active and inactive are the calls of the source. No stated cut-off is given here; in the data, active = GI50 up to about 1.1 µM and inactive = higher.
// allowed return values: t for active, f for inactive

Below are worked cases with known answers.
compound	assignedClass
CC(C)[C@@H]1C=C(c2ccccc2)c2ccccc2C1C(C#N)(C#N)C(C)C (some centres not stated)	f
COc1c(C)cc2c(c1O)C1C3[C@H]4SC[C@@]5(NCCC6=C5NC5C=CC=CC65)C(=O)OCC(c5c6c(c(C)c(OC(C)=O)c54)OCO6)N3[C@@H](O)C(C2)N1C (some centres not stated)	t
CCOC(=O)NNC(=O)NCCNC(=O)NNC(=O)OCC	f
N#CC1CCCCOCCOCCOCCOCCOCCCCCC1=O (configuration not stated)	f
c1ccc(/N=C2\c3ccccc3CN2c2ccccc2)cc1	f
C/C(CC(O)(C(F)(F)F)C(F)(F)F)=N\NC(N)=O	f
COc1ccc(CC2NCCc3c2[nH]c2ccccc32)cc1 (configuration not stated)	f
C/C(Cl)=N\OC(=O)Nc1ccccc1C(F)(F)F	f
COC(=O)C1C2C=CC(C2)C1(C(=O)OC)[S+]([O-])CC12CCC(CC1O)C2(C)C (configuration not stated)	f
COc1c(C2=NC(C(C)C)CO2)ccc2ccccc12 (configuration not stated)	f

Field: outcome | Entry: N#CC1(C#N)C2C=CC(C3CC=CC32)C1(C#N)C#N (configuration not stated)
f

Field: outcome | Entry: `CC1=C(C(=O)Nc2ccc(Cl)c(Cl)c2)C(c2ccc([N+](=O)[O-])cc2)C(C(=O)Nc2ccc(Cl)c(Cl)c2)=C(C)N1`
f

Field: outcome | Entry: CCOC(=O)CNC(=O)C(C)NC(=O)C(NC(=O)CC(c1ncc[nH]1)c1ncc[nH]1)C(C)CC (configuration not stated)
f

Field: outcome | Entry: `O=C1/C(=c2\c3ccccc3n3c(=O)c4ccccc4nc23)Nc2ccccc21`
f

Field: outcome | Entry: CCOC(=O)Cc1csc(NC(NC(=O)OCC)(C(=O)OCC)C(F)(F)F)n1 (configuration not stated)
f

Field: outcome | Entry: C[N+]1(C(CO)Cc2c[nH]c3ccccc23)Cc2ccccc2C1 (configuration not stated)
f

Field: outcome | Entry: `CN1CCC2(CC1)/C(=N/C1CCCCC1)NC(=S)N2c1ccccc1`
f

Field: outcome | Entry: CC(=O)O/C=C(/C=C/OC(C)=O)C(C/C=C(\C)C#CC=C(C)C)OC(C)=O (configuration not stated)
f

Field: outcome | Entry: `CCCCCCOc1ccc(C(=O)N(C)O)cc1`
f

###

System: LOX IMVI
assay: NCI tumour cell line growth inhibition, 48 h
The source made the active and inactive calls. Rule as the data show it: active = GI50 up to about 1.1 µM and inactive = higher.
Below, each of the molecules is paired with its reported GI50 value.

Some molecules with recorded GI50:
molecule	measuredParameter	result
COc1ccc(CSC2=C(C#N)C(=O)NC3(CCCCC3)S2)cc1	GI50	30.1 µM (inactive)
CC(=O)OCC1OC(n2c(-c3ccccc3)c(/N=N/c3ccc(C)cc3)c(C)c(C#N)c2=S)C(OC(C)=O)C(OC(C)=O)C1OC(C)=O (stereo unspecified)	GI50	6 µM (inactive)
CC(=O)O/N=C/c1c2ccccc2cc2ccccc12	GI50	> 100 µM (inactive)
N#CC1CCCCOCCOCCOCCOCCOCCCCCC1=O (stereo unspecified)	GI50	> 100 µM (inactive)
N#CC1(C#N)C2C=CC(C3CC=CC32)C1(C#N)C#N (stereo unspecified)	GI50	8.59 µM (inactive)

Record O=S(=O)(O)C(CO)c1ccccc1.O=S(=O)(O)Cc1ccccc1 (stereo unspecified) . Reported GI50: > 100 µM (inactive)
